The reported measurements were obtained from patent US4208520A.

- System: S. aureus Smith
- Assay info: In vitro antibacterial activity (minimal inhibitory concentration, agar dilution)
- Type: cell-based
- Condition info: Staphylococcus aureus; S. aureus Smith; Wellcotest Sensitivity Test Agar with 5% hemolyzed horse blood, 18 hours at 35° C.; read-out: MIC
- Source text: The compounds have shown activity in vitro against one or more of the following strains of bacteria: S. aureus Smith, S. aureus 53-180, N. catarrhalis 8193, E. coli 9637, S. paratyphi 11737, K. pneumoniae 10031, or P. vulgaris 6896. […]
Parameter MIC: see the listing below.

Use these answered entries as a reference point.
Compound	Parameter measured	Value reported
CCCC(C)OC(=O)c1ccc(Cn2ccc3c4c(N)nc(N)nc4ccc32)cc1 (stereo not shown)	MIC	15.6 µg/mL
Nc1nc(N)c2c(ccc3c2ccn3-c2ccncc2)n1	MIC	0.448 µg/mL
CC(=O)c1cccc(Cn2ccc3c4c(N)nc(N)nc4ccc32)c1	MIC	0.122 µg/mL

We next turn to a different compound, shown below.
Item NC(=O)c1ccc(-n2ccc3c4c(N)nc(N)nc4ccc32)cc1 was tested on S. aureus Smith; the reported MIC is 1.95 µg/mL
